Measured values drawn from patent US10730826B2 for this set.

- Target desc: Cathepsin H (Homo sapiens (Human), UniProt P09668)
- Sequence (P09668 98-335, species assumed): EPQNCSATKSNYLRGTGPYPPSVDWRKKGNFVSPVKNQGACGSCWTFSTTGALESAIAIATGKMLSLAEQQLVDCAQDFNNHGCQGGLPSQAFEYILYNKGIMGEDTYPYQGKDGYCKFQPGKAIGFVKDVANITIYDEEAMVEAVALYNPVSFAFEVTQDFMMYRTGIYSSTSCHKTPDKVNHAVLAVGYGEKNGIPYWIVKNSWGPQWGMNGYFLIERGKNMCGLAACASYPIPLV
- Experiment: Cathepsin H inhibition assay
- Type: biochemical
- Test settings: Table 4; read-out: IC50 (nM) CatH
Measure name: IC50 (nM)
Give the number; nM is assumed, so skip it.

// IC50 lookup, key: NCCCC[C@H](NC(=O)C1CCCC1)C(=O)COc1c(F)c(F)cc(F)c1F (stereo in doubt) [Compound 73, reference compound]
110

// IC50 lookup, key: NCCCC[C@H](NC(=O)C1CCCC1)C(=O)COc1c(F)ccc(F)c1F [Compound 1]
560

====

Listing: IC50 of selected molecules
- Target desc: lysine gingipain (Kgp) (Porphyromonas gingivalis (Bacteroides gingivalis), UniProt P72194)
- Experiment: biochemical
- Assay type: biochemical
- Test settings: IC50 (nM) Kgp, Table 4
Give the number; nM is assumed, so skip it.

Record excerpt, results attached:
1) COC(C)(C)C(=O)NC(CCCCN)C(=O)COC(C(F)(F)F)C(F)(F)F (centres unmarked) [Compound 69a] ... 0.21
2) CN(C)c1ccc(/N=N/c2ccc(C(=O)NCc3cc(F)c(OCC(=O)C(CCCCN)NC(=O)c4cccc(N=[N+]=[N-])c4)c(F)c3)cc2)cc1 (centres unmarked) [Compound 44a] ... 3.04
3) NCCCCC(NC(=O)C1CCCC1)C(=O)COC(C(F)(F)F)C(F)(F)F (centres unmarked) [Compound 18a] ... 0.5

// IC50 lookup, key: COC(C)(C)C(=O)NC(CCCCN)C(=O)COc1cc(C)nc(C)c1 (centres unmarked) [Compound 63a]
0.09

// IC50 lookup, key: NCCCCC(NC(=O)c1cccc(F)c1)C(=O)COc1c(F)cccc1F (centres unmarked) [Compound 26a]
0.09

====

- Target desc: UniProt P43235
- Sequence (P43235 115-329, species assumed): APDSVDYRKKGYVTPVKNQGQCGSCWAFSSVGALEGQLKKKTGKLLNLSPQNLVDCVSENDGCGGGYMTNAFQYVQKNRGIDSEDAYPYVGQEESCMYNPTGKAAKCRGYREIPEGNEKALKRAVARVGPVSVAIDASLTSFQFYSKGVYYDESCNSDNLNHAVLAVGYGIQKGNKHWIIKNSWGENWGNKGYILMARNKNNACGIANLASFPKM
- Experiment: Cathepsin K inhibition assay
- Type: biochemical
- Test settings: Table 3; read-out: IC50 (nM) CatK
Listing: IC50 of selected molecules

Record excerpt, results attached:
1) NCCCCC(NC(=O)C1CCCC1)C(=O)COc1cc(F)ccc1F (stereo not shown) ... > 100000 nM
2) NCCCCC(NC(=O)C1CCCC1)C(=O)COc1cccc(F)c1F (stereo not shown) ... > 100000 nM
3) NCCCCC(NC(=O)C1CCCC1)C(=O)COc1cc(F)cc(F)c1F (stereo not shown) ... > 100000 nM

Now consider a different molecule.
// IC50 lookup, key: NCCCCC(NC(=O)C1CCCC1)C(=O)COc1c(F)cccc1F (stereo not shown)
2290 nM

====

- Target desc: Cathepsin B (Homo sapiens (Human), UniProt P07858)
- Experiment: Cathepsin B inhibition assay
- Assay type: biochemical
- Test settings: Table 3; read-out: IC50 (nM) CatB
Listing: IC50 of selected compounds
Give the number; nM is assumed, so skip it.

1. NCCCC[C@H](NC(=O)C1CCCC1)C(=O)COc1c(F)ccc(F)c1F (racemic) [1a - non-racemic] ... 380
2. NCCCCC(NC(=O)C1CCCC1)C(=O)COc1ccccc1F (stereo not drawn) [Compound 3a] ... 52200
3. NCCCCC(NC(=O)C1CCCC1)C(=O)COc1cc(F)cc(F)c1F (stereo not drawn) [Compound 4a] ... 2640
4. NCCCCC(NC(=O)C1CCCC1)C(=O)COc1cccc(F)c1 (stereo not drawn) [Compound 7a] ... 49600
5. NCCCCC(NC(=O)C1CCCC1)C(=O)COc1cc(F)cc(F)c1 (stereo not drawn) [Compound 8a] ... 68300
6. NCCCC[C@H](NC(=O)C1CCCC1)C(=O)COc1c(F)c(F)cc(F)c1F (stereo in doubt) [Compound 73, reference compound] ... 485
7. NCCCCC(NC(=O)C1CCCC1)C(=O)COc1cc(F)ccc1F (stereo not drawn) [Compound 6a] ... 20300

Now consider a different compound.
Hello, I am looking for reported IC50 with Cathepsin B (Homo sapiens (Human), UniProt P07858) for NCCCCC(NC(=O)C1CCCC1)C(=O)COc1cccc(F)c1F (stereo not drawn) [Compound 5a] . Could you help?
21500
